- Tested on: MDA-MB-468 breast
- method: NCI tumour cell line growth inhibition, 48 h
Below, each of the compounds is paired with its reported TGI value.
Numeric only. Scale: µM

// known answers, use as guide
CC([C@H]1CC=C2C3CCC4=C[C@@H](N(C)C)CC[C@]4(C)C3CC[C@@]21C)N(C)C (stereo partly specified) ... 4.72
CCCCCCCC(=O)SCC/C=C/[C@@H]1CC(=O)NCc2nc(cs2)C2=N[C@@](C)(CS2)C(=O)N[C@@H](C(C)C)C(=O)N1 ... 1.21
COC1=CC(c2ccc[nH]2)=N/C1=C\c1[nH]c(C)c(CC(=O)OCc2ccccc2)c1C ... 2.45
O=C(c1ccccc1)n1ccc(-c2cc3cc(Br)ccc3oc2=O)n1 ... 25.2
N#C/C(=N\Nc1ccccc1)C(=O)Nc1cc(-c2ccccc2)nn1-c1ccccc1 ... 5.88

Proceeding to the next compound to report its TGI.
Q: Recorded TGI for C[C@H]1CNC(=O)c2cnn3ccc(nc23)N[C@H](C)c2cc(F)ccc2O1 , please?
Result: 14.6
